Examples of compounds with documented remaining at 3 h follow.
- assayMethodText: physchem
- condition: phosphate buffer, pH 7.4
Where a name gives a salt, the structure may show the parent alone.
Field: numeric (%). Do not append units.

Reference set, count: 2
Cc1c(-c2ccccc2)oc2c(C(=O)OCCCN3CCCCC3C)cccc2c1=O (stereo not drawn) [Active compound 1, hydrochloride]
100
Cc1c(-c2ccccc2)oc2c(C(=O)OCC(O)CN3CCCCC3)cccc2c1=O (stereo not drawn)
25

Query compound follows.
What remaining at 3 h value was documented for this compound, Cc1c(-c2ccccc2)oc2c(C(=O)OC3CCN(C)CC3)cccc2c1=O ?
100
